Task for the reader: assign each of the following compounds its reported Cell viability (%) Calvarial cell.
Tested on: Calvarial cell
Assay: Cytotoxicity test (MTT) in osteoblasts (calvarial cells)
Conditions: 1 μM, 72 hours, vs vehicle control
Answers are plain numbers, in %.

[[record]]
compound = "Cc1nccn1-c1ccc([N+](=O)[O-])c(Nc2ccc3[nH]ncc3c2)n1 [Compound 2]"
target_entity = "Calvarial cell"
measurement = 104


List the reported Cell viability (%) Calvarial cell of each compound below.
1. O=[N+]([O-])c1ccc(N2CCN(CCO)CC2)nc1Nc1ccc2cn[nH]c2c1 [Compound 19]
2. O=[N+]([O-])c1ccc(N2CCN(CCO)CC2)nc1Nc1ccc2[nH]ncc2c1 [Compound 15]
3. NC1CCN(c2ccc([N+](=O)[O-])c(Nc3ccc4[nH]ncc4c3)n2)CC1 [Compound 51]
4. O=[N+]([O-])c1ccc(N2CCC(O)CC2)nc1Nc1ccc2cn[nH]c2c1 [Compound 41]
5. CC1(C)CN(c2ccc([N+](=O)[O-])c(Nc3ccc4[nH]ncc4c3)n2)CC(C)(C)N1 [Compound 13]
6. O=[N+]([O-])c1ccc(NCCCn2ccnc2)nc1Nc1ccc2cn[nH]c2c1 [Compound 49]
7. O=[N+]([O-])c1ccc(N2CCNCC2)nc1Nc1ccc2[nH]ncc2c1 [Compound 10]

1: 100; 2: 90; 3: 73; 4: 98; 5: 94; 6: 95; 7: 95

====

Task for the reader: assign each of the following compounds its reported ALP activity (1 μM, % of Control) Calvarial cell.
System: Calvarial cell
Test: Alkaline phosphatase (ALP) activity in osteoblasts (Calvarial cells)
Assay type: cell-based, mouse
Conditions: 3 days

[[record]]
compound = "CCN(CCO)c1ccc([N+](=O)[O-])c(Nc2ccc3[nH]ncc3c2)n1 [Compound 11]"
measurement = "143 % of Control"

[[record]]
compound = "COCC(C)Nc1ccc([N+](=O)[O-])c(Nc2ccc3[nH]ncc3c2)n1 (stereo not drawn) [Compound 22]"
measurement = "119 % of Control"

[[record]]
compound = "CN(CC1OCCO1)c1ccc([N+](=O)[O-])c(Nc2ccc3[nH]ncc3c2)n1 [Compound 17]"
measurement = "139 % of Control"

[[record]]
compound = "CN(C)CC(C)(C)CNc1ccc([N+](=O)[O-])c(Nc2ccc3[nH]ncc3c2)n1 [Compound 16]"
measurement = "123 % of Control"

[[record]]
compound = "CN(CCO)c1ccc([N+](=O)[O-])c(Nc2ccc3[nH]ncc3c2)n1 [Compound 7]"
measurement = "221 % of Control"


Lab note: next compound to report on.
Lab note: need ALP activity (1 μM, % of Control) Calvarial cell for O=[N+]([O-])c1ccc(NN2CCOCC2)nc1Nc1ccc2cn[nH]c2c1 [Compound 24] on Calvarial cell, anyone have it? 107 % of Control

====

Tested on: Calvarial cell
Assay: Cytotoxicity test (MTT) in osteoblasts (calvarial cells)
Conditions: 1 μM, 72 hours, vs vehicle control
metric.name: Cell viability (%) Calvarial cell

// known answers, use as guide
[[record]]
compound = "CC(C)CNc1ccc([N+](=O)[O-])c(Nc2ccc3[nH]ncc3c2)n1 [Compound 8]"
measurement = "96%"

[[record]]
compound = "NCCCCNc1ccc([N+](=O)[O-])c(Nc2ccc3[nH]ncc3c2)n1 [Compound 50]"
measurement = "95%"

[[record]]
compound = "O=[N+]([O-])c1ccc(NCc2ccncc2)nc1Nc1ccc2cn[nH]c2c1 [Compound 26]"
measurement = "106%"


List the reported Cell viability (%) Calvarial cell of each compound below.
1. Nc1ccc([N+](=O)[O-])c(Nc2ccc3[nH]ncc3c2)n1 [Compound 32]
2. O=[N+]([O-])c1ccc(NCc2ccncc2)nc1Nc1ccc2[nH]ncc2c1 [Compound 47]

1. 99%
2. 102%

====

System: osteoclastogenesis (formation of multinucleated osteoclasts)
Test: Osteoclastogenesis inhibition via co-culture system (bone marrow cells + osteoblasts, TRAP staining)
Format: cell-based, mouse
Conditions: 1 μM, 7 days co-culture, vs vehicle control
metric.name: Osteoclastogenesis inhibition (%)
Give bare numbers, in %.

List the reported Osteoclastogenesis inhibition (%) of each compound below.
1. CN(CC1OCCO1)c1ccc([N+](=O)[O-])c(Nc2ccc3[nH]ncc3c2)n1 [Compound 17]
2. CN(C)CC(C)(C)CNc1ccc([N+](=O)[O-])c(Nc2ccc3[nH]ncc3c2)n1 [Compound 16]

1. 92
2. 89

List the reported Osteoclastogenesis inhibition (%) of each compound below.
1. O=[N+]([O-])c1ccc(NN2CCOCC2)nc1Nc1ccc2cn[nH]c2c1 [Compound 24]
2. CN(CCO)c1ccc([N+](=O)[O-])c(Nc2ccc3[nH]ncc3c2)n1 [Compound 7]
3. CCN(CCO)c1ccc([N+](=O)[O-])c(Nc2ccc3[nH]ncc3c2)n1 [Compound 11]
4. COCC(C)Nc1ccc([N+](=O)[O-])c(Nc2ccc3[nH]ncc3c2)n1 (stereo not drawn) [Compound 22]

86
72
98
100

====

Task for the reader: assign each of the following compounds its reported Cell viability (%) Calvarial cell.
Tested on: Calvarial cell
Test: Cytotoxicity test (MTT) in osteoblasts (calvarial cells)
Settings: 1 μM, 72 hours, vs vehicle control
One number for each entry, in %.

// known answers, use as guide
[[record]]
compound = "CC(C)(C)Nc1ccc([N+](=O)[O-])c(Nc2ccc3[nH]ncc3c2)n1 [Compound 12]"
metric_name = "Cell viability (%) Calvarial cell"
value_units = "%"
measurement = 109

[[record]]
compound = "CN(CCO)c1ccc([N+](=O)[O-])c(Nc2ccc3[nH]ncc3c2)n1 [Compound 7]"
metric_name = "Cell viability (%) Calvarial cell"
value_units = "%"
measurement = 103

[[record]]
compound = "NC1CCCCC1Nc1ccc([N+](=O)[O-])c(Nc2ccc3[nH]ncc3c2)n1 (centres unmarked) [Compound 30]"
metric_name = "Cell viability (%) Calvarial cell"
value_units = "%"
measurement = 114

[[record]]
compound = "CCN(CCO)c1ccc([N+](=O)[O-])c(Nc2ccc3[nH]ncc3c2)n1 [Compound 11]"
metric_name = "Cell viability (%) Calvarial cell"
value_units = "%"
measurement = 105

[[record]]
compound = "O=[N+]([O-])c1ccc(NCCN2CCOCC2)nc1Nc1ccc2[nH]ncc2c1 [Compound 37]"
metric_name = "Cell viability (%) Calvarial cell"
value_units = "%"
measurement = 94


List the reported Cell viability (%) Calvarial cell of each compound below.
1. CN1CCN(c2ccc([N+](=O)[O-])c(Nc3ccc4cn[nH]c4c3)n2)CC1 [Compound 40]
2. O=[N+]([O-])c1ccc(N2CCC(O)CC2)nc1Nc1ccc2[nH]ncc2c1 [Compound 9]
3. CN(CC1OCCO1)c1ccc([N+](=O)[O-])c(Nc2ccc3[nH]ncc3c2)n1 [Compound 17]

1: 95; 2: 105; 3: 89

====

Task for the reader: assign each of the following compounds its reported Cell viability (%) Calvarial cell.
System: Calvarial cell
Assay: Cytotoxicity test (MTT) in osteoblasts (calvarial cells)
Conditions: 1 μM, 72 hours, vs vehicle control
Answers are plain numbers, in %.

// known answers, use as guide
[[record]]
compound = "C[C@@H](CO)Nc1ccc([N+](=O)[O-])c(Nc2ccc3[nH]ncc3c2)n1"
metric_name = "Cell viability (%) Calvarial cell"
measurement = 103

[[record]]
compound = "C[C@@H](CO)Nc1ccc([N+](=O)[O-])c(Nc2ccc3cn[nH]c3c2)n1"
metric_name = "Cell viability (%) Calvarial cell"
measurement = 98

[[record]]
compound = "O=[N+]([O-])c1ccc(NCCc2ccccn2)nc1Nc1ccc2[nH]ncc2c1"
metric_name = "Cell viability (%) Calvarial cell"
measurement = 97

[[record]]
compound = "CN1CCN(Nc2ccc([N+](=O)[O-])c(Nc3ccc4cn[nH]c4c3)n2)CC1"
metric_name = "Cell viability (%) Calvarial cell"
measurement = 98

[[record]]
compound = "O=[N+]([O-])c1ccc(NC2CC2)nc1Nc1ccc2[nH]ncc2c1"
metric_name = "Cell viability (%) Calvarial cell"
measurement = 93


List the reported Cell viability (%) Calvarial cell of each compound below.
1. CN(C)CC(C)(C)CNc1ccc([N+](=O)[O-])c(Nc2ccc3[nH]ncc3c2)n1
2. O=[N+]([O-])c1ccc(N2CCNCC2)nc1Nc1ccc2cn[nH]c2c1
3. O=[N+]([O-])c1ccc(NCc2ccccn2)nc1Nc1ccc2cn[nH]c2c1
4. COCC(C)Nc1ccc([N+](=O)[O-])c(Nc2ccc3[nH]ncc3c2)n1 (stereo not drawn)
5. CNc1ccc([N+](=O)[O-])c(Nc2ccc3[nH]ncc3c2)n1
6. O=[N+]([O-])c1ccc(NCCCn2ccnc2)nc1Nc1ccc2[nH]ncc2c1
7. O=[N+]([O-])c1ccc(NN2CCOCC2)nc1Nc1ccc2cn[nH]c2c1

1: 104; 2: 91; 3: 96; 4: 99; 5: 112; 6: 117; 7: 110

List the reported Cell viability (%) Calvarial cell of each compound below.
1. O=[N+]([O-])c1ccc(NC(CO)CO)nc1Nc1ccc2[nH]ncc2c1
2. CC(C)(C)NNc1ccc([N+](=O)[O-])c(Nc2ccc3[nH]ncc3c2)n1
3. O=[N+]([O-])c1ccc(NCCc2ccccn2)nc1Nc1ccc2cn[nH]c2c1

1: 104; 2: 100; 3: 91
